System: MS2 coat protein
Assay: apparent KD of MS2 coat protein; designed switch direction (-1 OFF switch, 1 ON switch): 1; higher = weaker reporter binding
Details: input ligand: microRNA oligo, concentration not stated
measured.endpoint: apparent KD of MS2 coat protein (nM)
Entry rule: numbers only, all in nM.

Solved entries (count: 2):
biopolymer.sequence	target	apparent KD of MS2 coat protein, nM
UUGCUCGUGUGAGGAUAUGCCGCCGUUUCGGCUGCAGAAGGUACUCUUUUACAUGAGGAUCACCCAUGUCUCUGUUGUUUCGUG [salish99_SSNG1_r04_937] (Eterna round: R96, puzzle: Same State NG 1)	MS2 coat protein	96.4
UUGAAGAAUUAAGGAUAUUGAGUACAUAUGUAAAACAUGAGGAUCACCCAUGUGGGUUGCGGUAUCGAGAAGGUAAAUUAAUAG [Mat - same State NG 2 - JL mod - D70] (Eterna round: R96, puzzle: Same State NG 2)	MS2 coat protein	67.6

// query Give apparent KD of MS2 coat protein for the following sequence: UUAAUAAAUCAAGGAUAUCACGUCGUUUAGACGUGAGAAGGUGAUCAUAACAUGAGGAUCACCCAUGUAUUACAUGAAUAUUAA [SSNG1/1-B3] (Eterna round: R96, puzzle: Same State NG 1)
// result 778

// query Give apparent KD of MS2 coat protein for the following sequence: UUCACCUUUUUUUACAUGAGGAUCACCCAUGUUUUCCCUACGUAGGAUAUCGAUGCUUGAUUGUUCGAGAAGGACGUUGUAAGU [JR_SSND3_Sub056] (Eterna round: R96, puzzle: Same State NG 3)
// result 20.7

// query Give apparent KD of MS2 coat protein for the following sequence: GUAGCAUACCGAGGAUAUUCAUUACAUGAGGAUCACCCAUGUUUAAAUAAUAGGCGAAAGCCUUGGGAGAAGGCGGAAUGCUAC [Xeonanis - 20 Mod71] (Eterna round: R96, puzzle: Same State NG 2)
// result 10.1

// query Give apparent KD of MS2 coat protein for the following sequence: GAGAGACGAUUAGGAUAUACGGUGAUAAUGAUAGUAGAAGGAAUUGACAUGAGGAUCACCCAUGUAGGAAUAAUCCAGAGAGAG [Parity 26 - Jieux - Same State NG 1] (Eterna round: R96, puzzle: Same State NG 1)
// result 93.2

// query Give apparent KD of MS2 coat protein for the following sequence: UGGCUCAGAGCAGGAUAUAUGUGGUCACAUGAGGAUCACCCAUGUCUCGAGCUUCGGCUCGAGGCAUAGAAGGGCUCUGAGCCU [SSNG2/5-B3] (Eterna round: R96, puzzle: Same State NG 2)
// result 21.4

// query Give apparent KD of MS2 coat protein for the following sequence: AUUAAGAGCGUAGGAUAUGGGAAAGGAAGUGUACCAGAAGGACGAAUACAGCGUCCGGACAUGAGGAUCACCCAUGUAGGACGG [PowerStrip SSNG 1.18] (Eterna round: R96, puzzle: Same State NG 1)
// result 23.9

// query Give apparent KD of MS2 coat protein for the following sequence: UGACACACGGCAGGAUAUCGAUAGCAAAGCUAUCGAGAAGGGCCUCAUGUCGUGGAAACGUGACAUGAGGAUCACCCAUGUCGC [Omei SS(NG)1 Cv12] (Eterna round: R96, puzzle: Same State NG 1)
// result 12.6

// query Give apparent KD of MS2 coat protein for the following sequence: CUAUUAGGAUGAGGAUAUGCAGAGGAUCACCCUGUAGAAGGCAAUAGAUGAGGAUAUGCAGAGGAUCACCCUGUAGAAGGCAAC [pwkr ssNG DX.3] (Eterna round: R96, puzzle: Same State NG 1)
// result 98.9

----------
System: MS2 coat protein
Assay: apparent KD of MS2 coat protein, switch OFF state (with FMN for OFF switches, without FMN for ON switches); designed switch direction (-1 OFF switch, 1 ON switch): -1; higher = weaker reporter binding
Details: FMN input: 0 or 200 uM; Eterna round: R93 (includes R88 designs)
measured.endpoint: apparent KD of MS2 coat protein (µM)
Entry rule: numbers only, all in µM.

Solved entries (count: 2):
biopolymer.sequence	apparent KD of MS2 coat protein (µM)
AAAACGUGAGGAUAUACAUGAGGAUCACCCAUGUGAAACAGGAAAAACUGAAAGAAAAGUAGAAGGCACGAAAA [Tweaking Eli]	0.0444
AAAAGCACAGGAUAUACAAAAAAAUGACGAAAGUCAUAGGGACAUGAGGAUCACCCAUGUAGAAGGGUGCAAAA [Mod of Meechl's... 64% 4]	0.44

// query Give apparent KD of MS2 coat protein for the following sequence: AAGUAUCGAGGAUAUACAUAGAUACAGAUUCAUGUAGAACUACAUGAGGAUCACCCAUGUAGAAGGCGAUAAUA [AJ 33]
// result 0.0793

----------
Test system: MS2 coat protein
Assay: apparent KD of MS2 coat protein; designed switch direction (-1 OFF switch, 1 ON switch): -1; higher = weaker reporter binding
Settings: Eterna round: R95; input ligand: none
If the reported apparent KD of MS2 coat protein equals or exceeds 0.03 µM, assign yes. If not, assign no.

biopolymer.sequence	classification
GAAAUGGUAGGAUAUACGAAAAAAAAGGGUAGAAAAAAAACACAUGAGGAUCACCCAUGUAGAAGGACCAAAAG [salish99_ex2_r3_088] (puzzle: Exclusion 2)	no
CUAGAUCUUCGGAUCUAGUACAUGAGGAUCACCCAUGUUACGAGCAGAUUUUCAUACAAGCUUUUUGCUCGUCUUAU [Sensor v3 - Turn-off variant 1 - 32] (puzzle: Sensor v3, turn-off variant 1)	no

// query Can CCGAAUAUGUAGGAUAUCGUAUCGGAAACGAUACGAGAAGGACAAACAUGAGGAUCACCCAUGUUCCUUAACGG [Fiskers Ex 6 - 12] (puzzle: Exclusion 6) be said to have apparent KD of MS2 coat protein at or above 0.03 µM?
// result no

// query Can CCCUCACAUGAGGAUCACCCAUGUCAGGAUAUUCAGGUCACGCAAAAGCGGUUCCAAAGGAGAAGGGACAUCAA [Cequusso] (puzzle: Exclusion 1) be said to have apparent KD of MS2 coat protein at or above 0.03 µM?
// result yes

// query Can CUGGUCCGAGGAUAUAUUAAGUGAUACAUGAGGAUCACCCAUGUAAUUUAAUGGAUAUAAAUAGAAGGCGGACUAG [Mat - Exclusion 5 - JL mod - D48] (puzzle: Exclusion 5) be said to have apparent KD of MS2 coat protein at or above 0.03 µM?
// result yes

// query Can UGUACUAUGCGAGCUGACUUGCGUAGUGCAGCAGGUGAAACAUGAGGAUCACCCAUGUCCUCAUUUGCUCGUCUUAU [SL-sv3-2.02 JL mod] (puzzle: Sensor v3, turn-off variant 2) be said to have apparent KD of MS2 coat protein at or above 0.03 µM?
// result yes

// query Can AGUACUAACACGGAAGUGUUAGUACAAUAAGCUUGUGUUACAUGAGGAUCACCCAUGUCCUCAUAAGCUCGUCUUAU [Mat - Sensor v3 - Turn-off var 2 - D61] (puzzle: Sensor v3, turn-off variant 2) be said to have apparent KD of MS2 coat protein at or above 0.03 µM?
// result yes

// query Can GCCAGUGCAGGAUAUCUAUAACCCUACAUGAGGAUCACCCAUGUCCAGCGAAAGCUGGAGGGAGAAGGGCACUGGC [Fiskers Ex 5 - 27] (puzzle: Exclusion 5) be said to have apparent KD of MS2 coat protein at or above 0.03 µM?
// result no

// query Can AGUAACUAUCACGAAAGUGAUAGUUACAAACAGGUGAAAACAUGAGGAUCACCCAUGUCCUCAUUUGCUCGUCUUAU [Sensor 3 - 8] (puzzle: Sensor v3, turn-off variant 2) be said to have apparent KD of MS2 coat protein at or above 0.03 µM?
// result yes

// query Can GGAUCGAGUGUGAGGAUAUGCAGGUCCUUGGAUCUGCAGAAGGCACAUGAGGAUCACCCAUGUGGAGACGGUCC [Mat - Exclusion 4 - JL Mod - D75] (puzzle: Brourd's mod of Exclusion 4) be said to have apparent KD of MS2 coat protein at or above 0.03 µM?
// result yes

// query Can GAUUAUGCGAGCUUUAGGGACAUGAGGAUCACCCAUGUUCGUCUUAUUGAUCUAGGUACGCUAACAUACCUAAAUCU [Mod of one of jandersonlee's solutions 3] (puzzle: Sensor v3, turn-off variant 1) be said to have apparent KD of MS2 coat protein at or above 0.03 µM?
// result no

// query Can AAGAGUGCAGGAUAUACUUGGUAGGGCGGGUGGAUGAAGUGACAUGAGGAUCACCCAUGUAGAAGGGCAGAGAG [JR_Exclu2_Sub055] (puzzle: Exclusion 2) be said to have apparent KD of MS2 coat protein at or above 0.03 µM?
// result no

// query Can AGAUGGCGAGGAUAUACAUGAGGAUCACCCAUGUGAAGAUAAUAAGUGAGGAAGAAAAGUAGAAGGCGCUGUCA [Mat - Exclusion 3 - Mod of Salish D26] (puzzle: Exclusion 3) be said to have apparent KD of MS2 coat protein at or above 0.03 µM?
// result yes

Where do the numbers come from? From the supplement of paper PMC9170038.
